Data credit: paper PMC8526398

target entity: full-length human GRB2 (EGFR/GRB2 PPI) (Homo sapiens)
Sequence (P62993 whole entry): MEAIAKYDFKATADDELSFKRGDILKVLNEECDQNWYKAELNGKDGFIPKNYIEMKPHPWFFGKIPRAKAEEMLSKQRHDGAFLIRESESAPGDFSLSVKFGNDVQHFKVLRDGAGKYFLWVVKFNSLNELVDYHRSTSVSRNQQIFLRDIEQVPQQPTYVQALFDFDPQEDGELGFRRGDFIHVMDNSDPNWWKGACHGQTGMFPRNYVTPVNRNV
pKi: −log10 of the molar value.
quantity measured: pKi

Enter reported pKi observed with full-length human GRB2 (EGFR/GRB2 PPI) (Homo sapiens) for COC(=O)Cc1ccc([C@H]2/C=C/C[C@@H](Cc3cccc4ccccc34)CNC(=O)[C@H](CC(N)=O)NC(=O)C3(CCCCC3)NC(=O)C2)cc1 [Compound 8]
< 4.70
